B1: TEKT4 (parent)
chain: SEVEELNMSLTALREKLLEAEQSL

- Variants of: B1
- assay: protein stability index of a GFP-peptide fusion (GPS, HEK-293T) (PSI 1-6); higher = more stable;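 further: lentivirally expressed fusions sorted by FACS into six bins by GFP to DsRed ratio, PSI derived from sequencing read proportions per bin multiplied by bin number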
- condition-summary: c terminus: a fixed tail appended

variant-code	protein stability index
A12L	2.27
S23W	2.75
E21T	2.97
S9G	2.61
S9E	2.95
E5N	2.63
S23P	4.45
T11A	3.49
L13G	5.15
V3K	2.45
S9R	3.13
L18M	2.71
M8E	3.29
L17P	5.42
L10G	3.74
E5F	2.76
S23M	2.74
L18F	3.32
E21D	4.83
A20M	3.73
T11D	4.13
L24C	3.82
